Exercise: state measured soluble fraction (log2) for each of the sequences provided.
assay: soluble fraction after stress (log2 fold change); higher = more stays soluble; pooled small domains, quantitative proteomics; conditions: stress: 50 degC
# output: bare number, no unit

State its soluble fraction (log2): HMNEPMITEVKRINYGSIKEIAKNLDVFKGKNGTVIIDERTNTLILTDLSENIEKMLWSIEITD -0.896

State its soluble fraction (log2): HMKFLYQQVYQDIKDKITSAQYQFGDLLPSEREIGEEYHVDRTTVRKAFSLLVDEGLVEKRAGKGSVVIS -0.594

State its soluble fraction (log2): HMRRSKVMLESILDEIPQMGQARRAALLEQFGSVAALRKASLAEIAMTPGIGEKIAVIIFEYLQKSSH -1.17

State its soluble fraction (log2): HMSSSMDAIAEIIRSIPRGDHLTAPEVYELAKQRGLKLSLSTVYRTLNKLKVVGDVITVSGDRGLRYESV -0.181

State its soluble fraction (log2): HMEPEYIGELEKRIKKLKTHTYSSIDRLMKSISKKYKITTQVLHDDFKNKHNEIPDEWVKQF -0.0578

State its soluble fraction (log2): HMSRLMIVTPDGRIMDDVPEFGEVRTTTDVNGRVLVLDRNNVVIGFEMTPREYRREFGRNPF -0.643

State its soluble fraction (log2): HMKTGNIITVSLVWKGKYYMIRMFFPSASRPTRSDVQNEIEKVYPGSKLSTFSVSDYEPGQPLLQV -1.16

State its soluble fraction (log2): HMLGSVRTIRQVLDDGRLIVADGGGNPSVIRRSGALAHETFANGQRVIVDPSGRLALELLPD 0.314

Ref: the domain aggregation screens of Martell et al. (2025)
